- assay method text: Inhibition of adenylate kinase AMP binding site
pIC50: −log10 of the molar value.
measurement name: pIC50

Qu. Tell me its pIC50 given CCc1cc(F)c(N)c2nc(-c3ccc(P(=O)(O)O)o3)n(CC(C)C)c12 as the entry.
Ans. < 4.00

----------
- assay target: Fructose-1,6-bisphosphatase 1 (Rattus norvegicus)
- Sequence (P19112 whole entry): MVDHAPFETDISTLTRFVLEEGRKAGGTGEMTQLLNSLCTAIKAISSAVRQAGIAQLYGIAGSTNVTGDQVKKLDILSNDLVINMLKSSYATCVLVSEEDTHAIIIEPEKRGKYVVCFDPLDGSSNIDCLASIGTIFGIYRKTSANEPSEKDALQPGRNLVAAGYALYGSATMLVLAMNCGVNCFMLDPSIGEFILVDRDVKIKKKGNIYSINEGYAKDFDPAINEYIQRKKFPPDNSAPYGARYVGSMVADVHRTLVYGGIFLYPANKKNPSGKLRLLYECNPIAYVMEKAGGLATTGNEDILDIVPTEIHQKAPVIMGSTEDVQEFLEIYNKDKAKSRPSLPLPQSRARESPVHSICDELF
Recorded pIC50 by entry
Quick note: pIC50 means taking -log10 of the concentration in moles per liter.

CC(C)Cn1c(-c2ccc(P(=O)(O)O)o2)nc2c(N)c(Br)cc(Br)c21 : 5.70
CC(C)Cn1c(-c2ccc(P(=O)(O)O)o2)nc2c(N)c(F)cc(CCC(C)(C)C)c21 : 5.80
CC(C)Cn1c(-c2ccc(P(=O)(O)O)o2)nc2c(N)c(F)cc(CCCCCl)c21 : 6.30
Nc1cccc2c1nc(-c1ccc(P(=O)(O)O)o1)n2CC1CCCCC1 : 4.70
CC(C)Cn1c(-c2ccc(P(=O)(O)O)o2)nc2c(N)ccc(Cl)c21 : 5.70

Qu. Tell me its pIC50 given CCn1c(-c2ccc(P(=O)(O)O)o2)nc2c(N)cccc21 as the entry.
Ans. 4.40

Qu. Tell me its pIC50 given CCC(CC)Cn1c(-c2ccc(P(=O)(O)O)o2)nc2c(N)c(F)ccc21 as the entry.
Ans. 6.07

Qu. Tell me its pIC50 given CC(C)Cn1c(-c2ccc(P(=O)(O)O)o2)nc2c(N)c(F)ccc21 as the entry.
Ans. 5.64

Qu. Tell me its pIC50 given Nc1cccc2c1nc(-c1ccc(P(=O)(O)O)o1)n2CC1CCC1 as the entry.
Ans. 5.70

Qu. Tell me its pIC50 given Nc1cccc2c1nc(-c1ccc(P(=O)(O)O)o1)n2Cc1ccoc1 as the entry.
Ans. 4.70

Qu. Tell me its pIC50 given CC(C)Cn1c(-c2ccc(P(=O)(O)O)o2)nc2c(N)c(F)cc(Br)c21 as the entry.
Ans. 5.68

Qu. Tell me its pIC50 given CC(C)Cn1c(-c2ccc(P(=O)(O)O)o2)nc2c(N)ccc(Br)c21 as the entry.
Ans. 5.70

Qu. Tell me its pIC50 given Cn1c(-c2ccc(P(=O)(O)O)o2)nc2c(N)cccc21 as the entry.
Ans. 4.70

Qu. Tell me its pIC50 given CCCn1c(-c2ccc(P(=O)(O)O)o2)nc2c(N)cccc21 as the entry.
Ans. 5.70

Qu. Tell me its pIC50 given CC(C)Cn1c(-c2ccc(P(=O)(O)O)o2)nc2c(N)c(F)cc(-c3ccccc3)c21 as the entry.
Ans. 6.05

Qu. Tell me its pIC50 given CC(C)Cn1c(-c2ccc(P(=O)(O)O)o2)nc2c(N)c(F)cc(Cl)c21 as the entry.
Ans. 5.70

Qu. Tell me its pIC50 given CC(C)Cn1c(-c2ccc(P(=O)(O)O)o2)nc2c(N)c(Cl)cc(Cl)c21 as the entry.
Ans. 5.70

Qu. Tell me its pIC50 given Nc1cccc2c1nc(-c1ccc(P(=O)(O)O)o1)n2Cc1cccc(O)c1 as the entry.
Ans. 4.70

Taken from ChEMBL document CHEMBL1156817.
